tested on: HL-60(TB) leukemia; experiment: NCI tumour cell line growth inhibition, 48 h
Items are presented alongside their recorded TGI.

{"columns": ["molecule", "experimental.target", "TGI"],
 "data": [
  ["OCc1cn(Cc2cccc(Cl)c2)c2ccccc12", "HL-60(TB) leukemia", "21.1 µM"]
]}

What value of measured TGI is listed for Cn1c(O)c(/C=N/c2ncccn2)c(=O)[nH]c1=O ? > 100 µM

What value of measured TGI is listed for Clc1ccc(-n2nnc(C3=NCCN3)c2-c2ccccc2)cc1 ? > 100 µM

What value of measured TGI is listed for O=C1/C(=C/c2cccs2)N=C(c2ccccc2)N1c1nc2ccccc2s1 ? > 100 µM

What value of measured TGI is listed for CC(=O)O[C@H]1C(=O)[C@@]2(C)C(C(OC(=O)c3ccccc3)[C@]3(O)CC(OC(=O)[C@H](OC(=O)CCC(=O)O)C(NC(=O)c4ccccc4)c4ccccc4)C(C)=C1C3(C)C)C1(OC(C)=O)COC1C[C@@H]2OC(=O)CCC(=O)O (some centres undefined) ? 0.868 µM

What value of measured TGI is listed for C/C(=N\NC(=O)c1ccncc1)c1cccc(C(F)(F)F)c1 ? > 10 µM
